# experiment: Selectivity index, ratio of CC50 for human TZM-bl cells to EC50 for Human immunodeficiency virus 1 SF33 infected in human TZM-bl cells
# Format: toxicity, cell-based
# stated-conditions: read-out: Ratio CC50/EC50
quantity-measured: selectivity ratio

# molecule, selectivity ratio
measured = [
    ("Cc1ccc(Cc2cc(OC3CCCCC3C)c(C(C)C)c(=O)[nH]2)cc1 (mixture of isomers)", 1740),
    ("CC(C)c1c(OC2CCCCC2C)cc(Cc2ccc(Cl)cc2)[nH]c1=O (mixture of isomers)", 4720),
    ("CC(C)c1c(O[C@H]2CCCC[C@@H]2C)cc(CCc2ccccc2)[nH]c1=O (racemic)", "> 33300"),
]

API: the following record is the query input.
Asked: Query (molecule): CC(C)c1c(OC2CCCCC2C)cc(Cc2ccc(F)cc2)[nH]c1=O (mixture of isomers) ; field requested: selectivity ratio
Given back: 2860
